assayed target: T1, recombinant human PD-L1 extracellular domain (ECD) protein (cat #FCL0784B, G&P Biosciences) (human, UniProt Q9NZQ7 19-238)
T1 construct: extracellular domain; Bought protein; also called hPD-L1 protein; human PD-L1 protein
T1 sequence (Q9NZQ7 19-238): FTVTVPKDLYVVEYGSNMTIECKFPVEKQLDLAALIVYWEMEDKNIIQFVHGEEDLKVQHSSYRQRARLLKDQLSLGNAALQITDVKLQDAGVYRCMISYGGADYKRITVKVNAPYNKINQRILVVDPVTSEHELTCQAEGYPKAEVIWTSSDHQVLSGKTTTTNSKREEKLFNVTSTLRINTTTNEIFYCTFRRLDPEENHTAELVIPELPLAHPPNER
test: blocking of the human CD80/PD-L1 interaction
No end group written: not given here.
recorded endpoint: IC50 (nM)
# unit: nM | format: bare number

{"binder": "WHRSYYTWNLNT (not fully specified, 12-mer from phage display) [CLP002 peptide]", "quantitative readout": 2450}

# next binder below
State the recorded IC50 for this entry: WHFSYNWRWLPP (not fully specified, 12-mer from phage display) [CLP003 peptide]
1620

Where these numbers come from: patent US20220119451A1
